Biological target: UniProtKB P25975
Sequence (P25975 whole entry): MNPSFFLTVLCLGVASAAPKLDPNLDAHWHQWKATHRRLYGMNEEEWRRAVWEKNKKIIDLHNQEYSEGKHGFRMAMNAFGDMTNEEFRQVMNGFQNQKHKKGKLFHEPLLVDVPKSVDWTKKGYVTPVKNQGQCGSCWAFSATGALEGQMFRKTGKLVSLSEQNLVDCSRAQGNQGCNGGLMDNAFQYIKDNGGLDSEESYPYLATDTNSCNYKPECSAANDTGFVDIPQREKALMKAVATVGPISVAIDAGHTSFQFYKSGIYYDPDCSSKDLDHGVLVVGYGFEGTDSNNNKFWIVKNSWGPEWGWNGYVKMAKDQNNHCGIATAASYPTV
pKi: −log10 of the molar value.
MEASURED PARAMETER: pKi

[I] CSCCC(C#N)NC(=O)[C@H](Cc1ccccc1)NC(=O)OC(C)(C)C (stereo partly drawn) [Dipeptide nitrile, 7]
[II] C[S+](C)CCC(C#N)NC(=O)[C@H](Cc1ccccc1)NC(=O)OC(C)(C)C (stereo partly drawn) [Dipeptide nitrile, 8]
Lookup: For the pair I and II , which member has the lower pKi number? Please indicate the selected item by its label.
Found: II

====

Target sequence: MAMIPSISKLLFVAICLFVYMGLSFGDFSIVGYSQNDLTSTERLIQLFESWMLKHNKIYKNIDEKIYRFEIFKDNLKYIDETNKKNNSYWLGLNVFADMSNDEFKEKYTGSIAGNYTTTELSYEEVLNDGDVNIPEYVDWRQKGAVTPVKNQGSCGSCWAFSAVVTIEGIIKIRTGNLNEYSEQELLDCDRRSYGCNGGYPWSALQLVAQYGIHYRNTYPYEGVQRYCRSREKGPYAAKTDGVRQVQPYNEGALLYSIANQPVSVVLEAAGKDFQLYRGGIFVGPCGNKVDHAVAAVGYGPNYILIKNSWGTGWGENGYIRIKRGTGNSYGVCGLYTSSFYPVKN
MEASURED PARAMETER: Ki (nM)

[P] CSCCC(C#N)NC(=O)[C@H](Cc1ccccc1)NC(=O)OC(C)(C)C (some centres not stated) [Dipeptide nitrile, 7]
[Q] CC(C)(C)OC(=O)N[C@@H](Cc1ccccc1)C(=O)N[C@H](C#N)CC#N [Dipeptide nitrile, 10]
Lookup: Could you tell me which of these two has the smaller Ki figure? First: P Second: Q Give the chosen item's label as your response.
Found: P

====

The following compounds each carry a recorded pKi for Cathepsin K (Homo sapiens, UniProt P43235).
pKi: −log10 of the molar value.
MEASURED PARAMETER: pKi

- COMPOUND: "CSCCC(C#N)NC(=O)[C@H](Cc1ccccc1)NC(=O)OC(C)(C)C (stereo partly drawn) [Dipeptide nitrile, 7]"
  MEASURED PARAMETER: "pKi"
  NUMBER: 5.44

[1] CC(C)(C)OC(=O)N[C@@H](Cc1ccccc1)C(=O)N[C@H](C#N)CC#N [Dipeptide nitrile, 10]
[2] C[S+](C)CCC(C#N)NC(=O)[C@H](Cc1ccccc1)NC(=O)OC(C)(C)C (stereo partly drawn) [Dipeptide nitrile, 8]
Lookup: Of 1 and 2 , which carries the smaller reported pKi figure? Refer to your chosen entry by its label in the reply.
Found: 1
